- Tested on: NCI-H2009
- measurement.description: relative viability (nuclei count vs DMSO), 5 days (fraction); higher = more cells survive
- stated.conditions: first compound 2.53 µM
// NB: equality with 0.7 counts as criterion not met; only relative viability strictly below is criterion met

{"columns": ["compound", "measured.on", "class"],
 "data": [
  ["CCCCCCCCCCCC1=C(O)C(=O)C=C(O)C1=O [Embelin] + Nc1nc2[nH]cc(CCc3ccc(C(=O)N[C@@H](CCC(=O)O)C(=O)O)cc3)c2c(=O)[nH]1 [Pemetrexed] (partner 0.2 µM)", "NCI-H2009", "criterion not met"],
  ["CCCCCCCCCCCC1=C(O)C(=O)C=C(O)C1=O [Embelin] + Nc1ncn([C@H]2C[C@H](O)[C@@H](CO)O2)c(=O)n1 [Decitabine] (partner 2 µM)", "NCI-H2009", "criterion met"],
  ["CCCCCCCCCCCC1=C(O)C(=O)C=C(O)C1=O [Embelin] + C[C@@H](Oc1cc(-c2cnn(C3CCNCC3)c2)cnc1N)c1c(Cl)ccc(F)c1Cl [Crizotinib] (partner 1 µM)", "NCI-H2009", "criterion not met"],
  ["CCCCCCCCCCCC1=C(O)C(=O)C=C(O)C1=O [Embelin] + Cc1cc(Nc2cc(N3CCN(C)CC3)nc(Sc3ccc(NC(=O)C4CC4)cc3)n2)n[nH]1 [Tozasertib] (partner 0.1 µM)", "NCI-H2009", "criterion not met"],
  ["CCCCCCCCCCCC1=C(O)C(=O)C=C(O)C1=O [Embelin] + N=C(N)NC(=N)NCCc1ccccc1 [Phenformin] (partner 250 µM)", "NCI-H2009", "criterion met"],
  ["CCCCCCCCCCCC1=C(O)C(=O)C=C(O)C1=O [Embelin] + CS(=O)(=O)N1CCN(Cc2cc3nc(-c4cccc5[nH]ncc45)nc(N4CCOCC4)c3s2)CC1 [Pictilisib] (partner 1 µM)", "NCI-H2009", "criterion met"],
  ["CCCCCCCCCCCC1=C(O)C(=O)C=C(O)C1=O [Embelin] + Cc1nc(Nc2ncc(C(=O)Nc3c(C)cccc3Cl)s2)cc(N2CCN(CCO)CC2)n1 [Dasatinib] (partner 0.075 µM)", "NCI-H2009", "criterion met"]
]}

###

Entries and their relative viability values follow.
- System: NCI-H460
- measurement.description: relative viability (nuclei count vs DMSO), 5 days (fraction); higher = more cells survive
- stated.conditions: first compound 0.4 µM
attribute.measured: relative viability

{"columns": ["molecule", "numeric.readout"],
 "data": [
  ["C[C@@H]1CN(CC(=O)Nc2ccc3c(c2)Cc2cccc(-c4cc(=O)cc(N5CCOCC5)o4)c2S3)C[C@H](C)O1 + O=C(c1cc(Cc2n[nH]c(=O)c3ccccc23)ccc1F)N1CCN(C(=O)C2CC2)CC1 [Olaparib] (partner 8 µM)", 0.502],
  ["Clc1ccc(Nc2nnc(Cc3ccncc3)c3ccccc23)cc1 [Vatalanib] + CS(=O)(=O)CCNCc1ccc(-c2ccc3ncnc(Nc4ccc(OCc5cccc(F)c5)c(Cl)c4)c3c2)o1 [Lapatinib] (partner 2 µM)", 0.931],
  ["Clc1ccc(Nc2nnc(Cc3ccncc3)c3ccccc23)cc1 [Vatalanib] + CC1(C)CCC(c2ccc(Cl)cc2)=C(CN2CCN(c3ccc(C(=O)NS(=O)(=O)c4ccc(N[C@H](CCN5CCOCC5)CSc5ccccc5)c(S(=O)(=O)C(F)(F)F)c4)cc3)CC2)C1 [Navitoclax] (partner 0.5 µM)", 1.11],
  ["Clc1ccc(Nc2nnc(Cc3ccncc3)c3ccccc23)cc1 [Vatalanib] + C[C@@H](Oc1cc(-c2cnn(C3CCNCC3)c2)cnc1N)c1c(Cl)ccc(F)c1Cl [Crizotinib] (partner 1 µM)", 1.21],
  ["Clc1ccc(Nc2nnc(Cc3ccncc3)c3ccccc23)cc1 [Vatalanib] + CC(=O)Nc1cccc(-n2c(=O)n(C3CC3)c(=O)c3c(Nc4ccc(I)cc4F)n(C)c(=O)c(C)c32)c1 [Trametinib] (partner 0.02 µM)", 0.201],
  ["Clc1ccc(Nc2nnc(Cc3ccncc3)c3ccccc23)cc1 [Vatalanib] + CC(C)C[C@H](NC(=O)[C@H](Cc1ccccc1)NC(=O)c1cnccn1)B(O)O [Bortezomib] (partner 0.002 µM)", 1.03],
  ["C[C@@H]1CN(CC(=O)Nc2ccc3c(c2)Cc2cccc(-c4cc(=O)cc(N5CCOCC5)o4)c2S3)C[C@H](C)O1 + O=C(CCCCCCC(=O)Nc1ccccc1)NO [Vorinostat] (partner 1 µM)", 0.704],
  ["C[C@@H]1CN(CC(=O)Nc2ccc3c(c2)Cc2cccc(-c4cc(=O)cc(N5CCOCC5)o4)c2S3)C[C@H](C)O1 + CCNC(=O)c1noc(-c2cc(C(C)C)c(O)cc2O)c1-c1ccc(CN2CCOCC2)cc1 [Luminespib] (partner 0.01 µM)", 0.0348],
  ["C[C@@H]1CN(CC(=O)Nc2ccc3c(c2)Cc2cccc(-c4cc(=O)cc(N5CCOCC5)o4)c2S3)C[C@H](C)O1 + Nc1nc2[nH]cc(CCc3ccc(C(=O)N[C@@H](CCC(=O)O)C(=O)O)cc3)c2c(=O)[nH]1 [Pemetrexed] (partner 0.2 µM)", 0.0696]
]}

Just for reference, the supplement of paper PMC10307832 is where these values come from.
